Exercise: for every item that follows, state its recorded MTD at 14 days.
- assay_details: Determination of the maximum tolerated dose (MTD)
- Type: in vivo
- run_parameters: mouse, in vivo, ip; single intraperitoneal administration, survival over 14 days, B6D2F1/Jico mice
Give bare numbers, in mg/kg.

Worked cases, answers included:
>>> df
                         structure_notation  numeric_result
0  COc1ccnc2c1C(=O)c1c(-c3ccccc3NC(=O)C(F)(F)F)ccnc1C2=O              80
1    COc1ccnc2c1-c1nc3ccccc3c3ccnc(c13)C2=O              80
2  Nc1ccnc2c1C(=O)c1c(-c3ccccc3[N+](=O)[O-])ccnc1C2=O              80
3  O=C1c2nc(O)ccc2C(=O)c2c(-c3ccccc3NC(=O)C(F)(F)F)ccnc21              40
4  O=C1c2nccc(Cl)c2C(=O)c2c(-c3ccccc3[N+](=O)[O-])ccnc21              80

For every record below, what is its MTD at 14 days?
1. O=C1c2ncccc2-c2nc3ccccc3c3ccnc1c23
2. O=C1c2nccc(Cl)c2C(=O)c2c(-c3ccccc3NC(=O)C(F)(F)F)ccnc21

Reply |
1: 80; 2: 20
